Exercise: state measured Kd for each of the compounds provided.
Target system: CA-IX (Homo sapiens, UniProt Q16790)
Construct: His tag (C); purchased R&D Systems Inc. 2188-CA; host or cells: mouse myeloma cell line NS0
Assay overview: Binding affinity (Kd) determination for CA-IX inhibitors, DNSA fluorescence competition assay, Scatchard plots
Run parameters: Table 3
Numbers only, in nM.

A selection of reference data follows.
Compound	Kd (nM)
CC(C)[C@@H](C(=O)N1CCC(C(=O)O)CC1)n1cc(COc2ccc3nc(S(N)(=O)=O)sc3c2)nn1	10
NS(=O)(=O)c1nc2ccc(OCc3cn([C@@H](Cc4ccccc4)C(=O)NCC4COc5ccccc5O4)nn3)cc2s1 (stereo partly shown)	2.5
COC(=O)[C@@H](CSCc1cccc(OCCF)c1)NC(=O)[C@H](CCO)n1cc(COc2ccc3nc(S(N)(=O)=O)sc3c2)nn1	5
CCOC(=O)C1CCN(C(=O)[C@H](C(C)C)n2cc(COc3ccc4nc(S(N)(=O)=O)sc4c3)nn2)CC1	5
CC(C)C(C(=O)NC(COCc1cccc(OCCO)c1)C(=O)O)n1cc(COc2ccc3nc(S(N)(=O)=O)sc3c2)nn1 (single isomer, unassigned) [VM3-165B]	11
CC(C)[C@@H](C(=O)NCc1ccco1)n1cc(COc2ccc3nc(S(N)(=O)=O)sc3c2)nn1	25
NS(=O)(=O)c1nc2cc(OCc3cn(CC(=O)NCCCOCCOCCOCCCNC(=O)c4ccc(C(=O)O)c(-c5c6ccc(=O)cc-6oc6cc(O)ccc56)c4)nn3)ccc2s1	14
CC(C)[C@@H](C(=O)NCc1ccc(CN(C)C)o1)n1cc(-c2ccc(S(N)(=O)=O)cc2)nn1	25
CC1(C)O[C@@H](CF)[C@H](COc2ccc(CC(C(=O)NC(Cc3ccc(C(F)(F)F)cc3)C(=O)O)n3cc(COc4ccc5nc(S(N)(=O)=O)sc5c4)nn3)cc2)O1 (stereo partly shown) [BW-369-1B]	2.5

# input for lookup
query: # input compound: "NS(=O)(=O)c1nc2ccc(OCc3cn(Cc4ccc(C(=O)O)cc4)nn3)cc2s1" ; wanted: its Kd
result: 14.1
